Where these numbers come from: PubChem BioAssay (EPA / NIEHS)

System: guinea pig Histamine Receptor (H2), gene 100729734
Test: NVS_GPCR_gH2: NovaScreen (NVS) G Protein-Coupled Receptor Assay for guinea pig Histamine Receptor (H2) (AID 2283342)
Experimental: NVS_GPCR_gH2 is a biochemical, single-readout assay that uses extracted gene-proteins from Guinea pig striatal membranes in a tissue-based cell-free assay. Measurements were taken 1 hour after chemical dosing in a 96-well plate.NVS_GPCR_gH2 is one of one assay component(s) measured or calculated from the NVS_GPCR_gH2 assay. […] This assay endpoint, NVS_GPCR_gH2, was analyzed in the positive analysis fitting direction relative to DMSO as the negative control and baseline of activity. […]
Records with an inconclusive call do not appear. The source made the active and inactive calls. Rule for the calls: active = hit-call score of the fitted dose curve at least 0.9, where 1 is the maximum; inconclusive = response in the unintended direction; inactive = score below 0.9.
propertyLabel: AC50

Any idea what AC50 was measured for `CCn1nc(C)c2c1C(=O)NCC(c1ccc(O)cc1)=N2` ?
inactive

Any idea what AC50 was measured for `COc1cc(C(C)C)c2c(c1)S(=O)(=O)N(COc1cc(=O)n3cccc(OCCN4CCCCC4)c3n1)C2=O` ?
3.13 µM (active)

Any idea what AC50 was measured for `Cc1nccn1-c1ccc(Sc2cccc(C3(C(N)=O)CCOCC3)c2)cc1` ?
inactive

Any idea what AC50 was measured for `Cc1ncc([C@@H](CCCCCCc2ccc3c(n2)NCCC3)CC(=O)O)cn1` ?
25 µM (active)

====

biological target: Estrogen receptor beta (Homo sapiens); assay: OT_ER_ERbERb_0480: Odyssey Thera (OT) 8-hour HEK293T Protein-Complementation Assay for Estrogen Receptor-beta/-beta Homodimer (AID 2283357);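 note: active means signal gain over DMSO baseline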
Inconclusive results are not listed. The source made the active and inactive calls. How the source made its calls: active means hit-call score of the fitted dose curve at least 0.9, where 1 is the maximum; inconclusive means response in the unintended direction; inactive means score below 0.9.
Give your call using only these classes: label 1 (active), label 0 (inactive)

Kindly provide the recorded test outcome for the following molecule: `Cc1nccn1-c1ccc(Sc2cccc(C3(C(N)=O)CCOCC3)c2)cc1`
label 1

Now examine the next entry.
Kindly provide the recorded test outcome for the following molecule: `CCc1cccc(CC)c1N`
label 0

====

Read-out: Hypoxia-inducible factor 1-alpha (Homo sapiens)
Assay: LTEA_HepaRG_HIF1A: Life Technologies and Expression Analysis (LTEA) Assay for Hypoxia-inducible factor 1 (HIF1A) Trancription factor using HepaRG (AID 2283503);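 note: HIF1A transcript by TaqMan qRT-PCR normalized to ACTB GAPDH and POLR2A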
Settings: mRNA level, 48 h; actives raise or lower the signal
Description: LTEA_HepaRG is a cell based, multiplexed-readout assay that uses HepaRG, a human liver cell line, with measurements taken at 48 hours after chemical dosing on a 96-well plate.LTEA_HepaRG_HIF1A is one of 102 assay component(s) measured in the LTEA HepaRG cell culture assay. It is a marker of Cell proliferation, survival, death.Data from the assay component LTEA_HepaRG_HIF1A was analyzed into 1 endpoint. […]
The source made the active and inactive calls. Rule for the calls: active = hit-call score of the fitted dose curve at least 0.9, where 1 is the maximum; inactive = score below 0.9.
Give your call using only these classes: active, inactive

Kindly provide the recorded test outcome for the following compound: `CCCc1ccccc1`
inactive

Kindly provide the recorded test outcome for the following compound: `O=C1CN(N=Cc2ccc([N+](=O)[O-])o2)C(=O)N1`
inactive

Kindly provide the recorded test outcome for the following compound: `CCOC(N)=O`
inactive

Kindly provide the recorded test outcome for the following compound: `CC[C@H](C)C(=O)O[C@H]1C[C@H](O)C=C2C=C[C@H](C)[C@H](CC[C@@H](O)C[C@@H](O)CC(=O)O)[C@H]21`
inactive

Kindly provide the recorded test outcome for the following compound: `COCc1nnc(-c2ccc[n+]([O-])c2)n1-c1c(Cl)c(Cl)cc2[nH]c(=O)c(=O)[nH]c12`
inactive

Kindly provide the recorded test outcome for the following compound: `O=S1(=O)CCCO1`
inactive

Kindly provide the recorded test outcome for the following compound: `CCc1ccc(O)c(C(C)(C)C)c1`
inactive

Kindly provide the recorded test outcome for the following compound: `CCCC(CCC)C(=O)O`
inactive

====

read-out: Collagen III, COL3A1 (gene 1281); test: BSK_hDFCGF_CollagenIII: BioMAP Diversity Plus: hDFCGF Assay for Collagen III Biomarker Activity (AID 2283056); details: primary human foreskin fibroblasts; actives raise or lower the signal
Active and inactive are the calls of the source. The calls were made as follows: active = hit-call score of the fitted dose curve at least 0.9, where 1 is the maximum; inactive = score below 0.9.
Give your call using only these classes: TRUE for active, FALSE for inactive

Recorded results for 6 molecules are shown here.
Kindly provide the recorded test outcome for the following molecule: CCCCC(CC)C(=O)OCCOCCOCCOC(=O)C(CC)CCCC (centres undefined)
TRUE

Kindly provide the recorded test outcome for the following molecule: `OCc1c[nH]c2ccccc12`
FALSE

Kindly provide the recorded test outcome for the following molecule: `O=S(=O)(O)CCC(F)(F)C(F)(F)C(F)(F)C(F)(F)C(F)(F)C(F)(F)F`
FALSE

Kindly provide the recorded test outcome for the following molecule: `c1ccc(C(O[C@@H]2CCCN(CCc3ccc4c(c3)OCO4)C2)c2ccccc2)cc1`
TRUE

Kindly provide the recorded test outcome for the following molecule: `CC[C@H](C)C(=O)O[C@H]1C[C@H](O)C=C2C=C[C@H](C)[C@H](CC[C@@H](O)C[C@@H](O)CC(=O)O)[C@H]21`
FALSE

Kindly provide the recorded test outcome for the following molecule: `Cc1nc(-c2ccccn2)ncc1C(=O)Nn1cc(C)c2cc(F)ccc21`
FALSE

Continuing:
Kindly provide the recorded test outcome for the following molecule: `CCCc1ccccc1`
FALSE

Kindly provide the recorded test outcome for the following molecule: `CCc1cccc(CC)c1N`
FALSE

Kindly provide the recorded test outcome for the following molecule: `c1ccc2ncccc2c1`
FALSE

Kindly provide the recorded test outcome for the following molecule: `CCCCCCCCCC`
FALSE

Kindly provide the recorded test outcome for the following molecule: `NC(=O)N1c2ccccc2C=Cc2ccccc21`
FALSE

Kindly provide the recorded test outcome for the following molecule: `CCCCCCOC(=O)CC(CC(=O)OCCCCCC)(OC(=O)CCC)C(=O)OCCCCCC`
FALSE

Kindly provide the recorded test outcome for the following molecule: `OC(CCl)CCl`
FALSE

Kindly provide the recorded test outcome for the following molecule: `CC1(C)C(=O)N(Cl)C(=O)N1Cl`
FALSE

Kindly provide the recorded test outcome for the following molecule: `COCc1nnc(-c2ccc[n+]([O-])c2)n1-c1c(Cl)c(Cl)cc2[nH]c(=O)c(=O)[nH]c12`
FALSE

Kindly provide the recorded test outcome for the following molecule: `S=P(N1CC1)(N1CC1)N1CC1`
FALSE

====

assay: CPHEA_Stoker_NIS_Cytotoxicity: Cytotoxicity Assessment for CPHEA's Radioactive Iodide Uptake (RAIU) Assay for Sodium/Iodide Symporter (NIS) Inhibition, Stoker and Laws Labs (AID 2283897)
Active and inactive are the calls of the source. Rule for the calls: active = hit-call score of the fitted dose curve at least 0.9, where 1 is the maximum; inconclusive = response in the unintended direction; inactive = score below 0.9.
Give your call using only these classes: T (active), F (inactive)

Kindly provide the recorded test outcome for the following molecule: `CCN(CC)C(=S)SSC(=S)N(CC)CC`
F

Kindly provide the recorded test outcome for the following molecule: `CC(C)C(=O)Nc1ccc([N+](=O)[O-])c(C(F)(F)F)c1`
F

Continuing:
Kindly provide the recorded test outcome for the following molecule: `C=CCc1cc(S(=O)(=O)c2ccc(O)c(CC=C)c2)ccc1O`
T

Kindly provide the recorded test outcome for the following molecule: `c1ccc(C(O[C@@H]2CCCN(CCc3ccc4c(c3)OCO4)C2)c2ccccc2)cc1`
F

Kindly provide the recorded test outcome for the following molecule: `CCCCOC(=O)c1ccccc1`
F

Kindly provide the recorded test outcome for the following molecule: `COc1cc(C(C)C)c2c(c1)S(=O)(=O)N(COc1cc(=O)n3cccc(OCCN4CCCCC4)c3n1)C2=O`
F

Kindly provide the recorded test outcome for the following molecule: `NC(=O)N1c2ccccc2C=Cc2ccccc21`
F

Kindly provide the recorded test outcome for the following molecule: CCCCC(CC)C(=O)OCCOCCOCCOC(=O)C(CC)CCCC (centres undefined)
F

Kindly provide the recorded test outcome for the following molecule: `CCCCN1C(=O)[C@@H]([C@H](O)C2CCCCC2)NC(=O)C12CCN(Cc1ccc(Oc3ccc(C(=O)O)cc3)cc1)CC2`
F

====

read-out: Cyclin Dependent Kinase Inhibitor 1A (CDKN1A), CDKN1A (gene 1026); assay: LTEA_HepaRG_CDKN1A: Life Technologies and Expression Analysis (LTEA) Assay for Cyclin Dependent Kinase Inhibitor 1A (CDKN1A) using HepaRG (AID 2283450); settings: mRNA level, 48 h; actives raise or lower the signal
Activity calls are given as the source filed them. Rule for the calls: active = hit-call score of the fitted dose curve at least 0.9, where 1 is the maximum; inactive = score below 0.9.
Give your call using only these classes: active, inactive

Kindly provide the recorded test outcome for the following molecule: `O=C(O)c1ccc2c(c1)nc(C(=O)NC1CCN(C3CC3)CC1)n2Cc1cc(-c2ccc(Cl)s2)on1`
inactive

Kindly provide the recorded test outcome for the following molecule: `OCCNCCO`
inactive

Kindly provide the recorded test outcome for the following molecule: `CCn1nc(C)c2c1C(=O)NCC(c1ccc(O)cc1)=N2`
inactive

Kindly provide the recorded test outcome for the following molecule: `C=CN1CCCC1=O`
inactive

Kindly provide the recorded test outcome for the following molecule: `Cc1ncc([C@@H](CCCCCCc2ccc3c(n2)NCCC3)CC(=O)O)cn1`
inactive

Continuing:
Kindly provide the recorded test outcome for the following molecule: `NNC(=O)c1ccncc1`
inactive

Kindly provide the recorded test outcome for the following molecule: `NC(=O)N1c2ccccc2C=Cc2ccccc21`
inactive

Kindly provide the recorded test outcome for the following molecule: `CCCCCCCC/C=C\CCCCCCCC(=O)OC[C@@H](O)[C@H]1OC[C@H](O)[C@H]1O`
inactive

Kindly provide the recorded test outcome for the following molecule: `C[C@]12C=CC(=O)C=C1CC[C@H]1[C@@H]3C[C@@H](O)[C@](O)(C(=O)CO)[C@@]3(C)C[C@H](O)[C@@]12F`
inactive

Kindly provide the recorded test outcome for the following molecule: `CCCCCCCCCCCCCCO`
inactive

Kindly provide the recorded test outcome for the following molecule: `CCCCCCCCCCCCCCCCOS(=O)(=O)O`
inactive
